For each record, write down the corresponding IC50.
Tested on: Nakaseomyces glabratus
Assay explanation: Antimicrobial activity against Candida glabrata by Alamar blue method
Assay type: functional, organism-based
One number for each entry, in µg/mL.

Known results for molecules:
Structure	Readout units	IC50
Clc1ccccc1CSc1cc2ccccc2[n+](CCCCCC2CCCCC2)c1.[I-]	µg/mL	6
FC(F)(F)c1ccccc1CSc1cc2ccccc2[n+](CCCCCC2CCCCC2)c1.[I-]	µg/mL	2.7
COc1cccc(CSc2cc3ccccc3[n+](CCCCCC3CCCCC3)c2)c1.[I-]	µg/mL	9.7

For every item in the list below, what is its measured IC50?
1. Fc1ccccc1CSc1cc2ccccc2[n+](CCCCCC2CCCCC2)c1.[I-]
2. Brc1cccc(CSc2cc3ccccc3[n+](CCCCCC3CCCCC3)c2)c1.[I-]
3. N#Cc1ccc(CSc2cc3ccccc3[n+](CCCCCC3CCCCC3)c2)cc1.[I-]

1. 6.3
2. 1.4
3. 11

For every item in the list below, what is its measured IC50?
1. [I-].c1ccc(CCSc2cc3ccccc3[n+](CCCCCC3CCCCC3)c2)cc1
2. OC(Cn1cncn1)(Cn1cncn1)c1ccc(F)cc1F
3. Cc1cccc(CSc2cc3ccccc3[n+](CCCCCC3CCCCC3)c2)c1.[I-]

9.5
27
3.3
